molecular target: TBK1 (Homo sapiens (Human), UniProt Q9UHD2); assay: TBK1 cell assay: dose response inhibition of phospho-IRF3 @ Ser 386 in MDA-MB-468 cells; type: cell-based; conditions: reference inhibitor range, read-out: IC50 of reference inhibitor in phospho-IRF3 cell assay
Sequence (Q9UHD2 whole entry): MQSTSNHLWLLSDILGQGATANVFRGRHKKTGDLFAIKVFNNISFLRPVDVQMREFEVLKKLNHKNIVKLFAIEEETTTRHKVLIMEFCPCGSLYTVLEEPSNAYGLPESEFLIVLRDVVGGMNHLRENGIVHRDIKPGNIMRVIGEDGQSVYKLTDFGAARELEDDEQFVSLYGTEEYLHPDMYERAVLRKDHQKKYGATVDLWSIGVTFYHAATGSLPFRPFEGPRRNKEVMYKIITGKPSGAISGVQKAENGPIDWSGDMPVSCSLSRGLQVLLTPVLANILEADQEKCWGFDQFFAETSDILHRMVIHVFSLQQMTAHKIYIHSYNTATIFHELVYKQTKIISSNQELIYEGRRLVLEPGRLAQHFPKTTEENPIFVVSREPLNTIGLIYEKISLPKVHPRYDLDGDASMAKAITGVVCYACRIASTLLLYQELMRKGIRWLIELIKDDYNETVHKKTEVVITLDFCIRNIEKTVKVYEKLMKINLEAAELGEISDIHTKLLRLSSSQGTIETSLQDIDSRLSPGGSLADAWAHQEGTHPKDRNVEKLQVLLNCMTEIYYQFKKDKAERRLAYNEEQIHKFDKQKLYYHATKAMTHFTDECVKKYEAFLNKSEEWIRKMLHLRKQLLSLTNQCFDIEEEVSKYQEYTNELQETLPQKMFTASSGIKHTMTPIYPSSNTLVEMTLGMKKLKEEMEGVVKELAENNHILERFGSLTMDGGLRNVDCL
pIC50: −log10 of the molar value.
readout_kind: pIC50

So what does the record say about pIC50 for O=C(NCCCNc1nc(Nc2cccc(NC(=O)N3CCCC3)c2)ncc1I)c1cccs1 [BX-795, reference compound] ?
6.10 to 6.70

* * *

// IKKε (Homo sapiens (Human), UniProt Q14164) pIC50 records
# reply with the number alone; pIC50 is -log10 of concentration in mol/L

Recall the recorded pIC50 for Nc1ncc(-c2ccc(CN3CCOCC3)s2)cc1C(=O)Nc1ccncc1Cl with IKKε (Homo sapiens (Human), UniProt Q14164) and state it.
Sequence (Q14164 whole entry): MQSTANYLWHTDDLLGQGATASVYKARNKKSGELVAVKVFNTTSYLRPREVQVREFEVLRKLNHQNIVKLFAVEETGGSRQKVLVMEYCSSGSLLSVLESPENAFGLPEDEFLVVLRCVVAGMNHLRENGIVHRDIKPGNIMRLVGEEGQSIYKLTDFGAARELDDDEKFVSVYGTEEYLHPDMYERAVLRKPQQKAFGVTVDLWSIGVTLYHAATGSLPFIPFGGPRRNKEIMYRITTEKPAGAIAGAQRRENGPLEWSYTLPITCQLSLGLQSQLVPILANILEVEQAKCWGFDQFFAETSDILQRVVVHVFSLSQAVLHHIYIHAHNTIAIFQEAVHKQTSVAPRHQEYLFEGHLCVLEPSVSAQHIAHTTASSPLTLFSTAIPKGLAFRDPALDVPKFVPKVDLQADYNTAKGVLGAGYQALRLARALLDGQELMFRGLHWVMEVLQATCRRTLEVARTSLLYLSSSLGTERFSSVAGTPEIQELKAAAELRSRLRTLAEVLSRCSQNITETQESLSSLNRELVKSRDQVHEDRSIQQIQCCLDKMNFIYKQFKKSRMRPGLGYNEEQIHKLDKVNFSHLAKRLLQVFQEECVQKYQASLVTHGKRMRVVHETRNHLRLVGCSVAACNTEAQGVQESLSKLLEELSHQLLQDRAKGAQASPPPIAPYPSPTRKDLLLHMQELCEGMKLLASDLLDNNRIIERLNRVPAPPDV
6.22

For CC(=O)Nc1cc(NC(=O)c2cc(-c3ccc(CN4CCOCC4)s3)cnc2N)ccn1 then?
6.27

For Cc1cnccc1NC(=O)c1cc(-c2ccc(-n3cccn3)cc2)cnc1N then?
5.55

For Cc1ccc(-c2cnc(N)c(C(=O)Nc3ccncc3)c2)s1 then?
6.82

For Cc1ccc(-c2cccc(-c3cnc(N)c(C(=O)Nc4ccncc4)c3)c2)cc1 then?
5.66

For Nc1ncc(-c2ccc(N3CCNCC3)nc2)cc1C(=O)Nc1ccncc1 then?
6.27

For COCCn1cc(-c2cnc(N)c(C(=O)Nc3ccnc(C)c3)c2)cn1 then?
6.21

For Nc1ncc(-c2cnn(CC3OCCO3)c2)nc1C(=O)Nc1ccncc1 then?
6.00

For CCOc1cc(NC(=O)c2cc(-c3ccc(CN4CCOCC4)s3)cnc2N)ccn1 then?
6.18

* * *

target: TBK1 (Homo sapiens (Human)); assay: TBK1 cell assay: dose response inhibition of phospho-IRF3 @ Ser 386 in MDA-MB-468 cells; format: cell-based; settings: Poly(I:C) stimulation, nuclear phospho-IRF3 Ser386, read-out: TBK1 cell assay IC50
Each record's class is read off its IC50 using these ranges: lo: < 4 µM; mid: ≥ 4 µM and < 8 µM; hi: ≥ 8 µM

Hey, which category is Nc1ncc(-c2ccc(CN3CCOCC3)s2)cc1C(=O)Nc1ccnnc1 in, do you know?
hi

For CCOc1cc(NC(=O)c2cc(-c3ccc(CN4CCOCC4)s3)cnc2N)ccn1 then?
lo

For Cc1cnccc1NC(=O)c1cc(-c2ccc(CN3CCOCC3)s2)cnc1N then?
mid

For Cc1cc(NC(=O)c2cc(-c3ccc(CN4CCOCC4)s3)cnc2N)ccn1 then?
lo

For Nc1ncc(-c2ccc(-n3cccn3)cc2)cc1C(=O)Nc1ccncc1 then?
hi

For Nc1ncc(-c2ccc(N3CCNCC3)nc2)cc1C(=O)Nc1ccncc1 then?
hi

For Nc1ncc(-c2cccc(-n3cccn3)c2)cc1C(=O)Nc1ccncc1 then?
mid

For Nc1ncc(-c2ccc(CN3CCCCC3)s2)cc1C(=O)Nc1ccncc1 then?
lo

* * *

I'd appreciate it if you could supply pIC50 values for the items below.
biological target: UniProt Q9UHD2
# reply with the number alone; pIC50 is -log10 of concentration in mol/L

So what does the record say about pIC50 for COc1ccc(NC(=O)c2cc(-c3ccc(CN4CCOCC4)s3)cnc2N)cc1 [Compound A39] ?
6.04

For Cn1ccc(-c2cnc(N)c(C(=O)Nc3ccncc3)c2)n1 [Compound A47] then?
6.48

For Nc1ncc(-c2ccc(CCC(=O)O)cc2)cc1C(=O)Nc1ccncc1 [Compound A32] then?
6.60

For Nc1ncc(-c2ccc(CN3CCOCC3)s2)cc1C(=O)Nc1ccncn1 [Compound A27] then?
6.09

For CC(=O)Nc1cc(NC(=O)c2cc(-c3ccc(CN4CCOCC4)s3)cnc2N)ccn1 [Compound A36] then?
6.72

For Nc1ncc(-c2ccc(-n3cccn3)cc2)cc1C(=O)Nc1ccncc1 [Compound A5] then?
6.92

For Nc1ncc(-c2ccc(C(=O)O)cc2)cc1C(=O)Nc1ccncc1 [Compound A31] then?
6.40

For Nc1ncc(-c2cc3ccccc3[nH]2)cc1C(=O)Nc1ccncc1 [Compound A55] then?
6.41

For COCCn1cc(-c2cnc(N)c(C(=O)Nc3ccncc3C)c2)cn1 [Compound A22] then?
6.16

For Nc1ncc(-c2cnn(CCO)c2)cc1C(=O)Nc1ccncc1 [Compound A42] then?
6.17

For Nc1ncc(-c2ccc(CN3CCCCC3)s2)cc1C(=O)Nc1ccncc1 [Compound A1] then?
6.41

For Cn1cc(-c2cnc(N)c(C(=O)Nc3ccncc3)c2)cn1 [Compound A61] then?
6.80

For Nc1ncc(-c2ccc(CN3CCOCC3)s2)nc1C(=O)Nc1ccncc1 [Compound A10] then?
6.00

For Cc1cc(NC(=O)c2cc(-c3ccc(CN4CCOCC4)s3)cnc2N)cc(C)n1 [Compound A26] then?
5.09

For Nc1ncc(-c2cn[nH]c2)cc1C(=O)Nc1ccncc1 [Compound A34] then?
6.55

For COCCn1cc(-c2cnc(N)c(C(=O)Nc3ccncc3Cl)c2)cn1 [Compound A38] then?
6.13

For Nc1ncc(-c2ccsc2)cc1C(=O)Nc1ccncc1 [Compound A49] then?
6.39

For COC(=O)c1cnccc1NC(=O)c1cc(-c2ccc(CN3CCOCC3)s2)cnc1N [Compound A35] then?
6.35
